- SYSTEM_NAME: T1, Human MAGEB2 (Melanoma-associated antigen B2) (human, UniProt O15479 1-319)
- T1 construct: Intracellular antigen detected by IHC in FFPE material: CHO cells transfected with human MAGEB2 (mCherry vector with Myc/DDK tags, or ORF without tags)
- T1 sequence: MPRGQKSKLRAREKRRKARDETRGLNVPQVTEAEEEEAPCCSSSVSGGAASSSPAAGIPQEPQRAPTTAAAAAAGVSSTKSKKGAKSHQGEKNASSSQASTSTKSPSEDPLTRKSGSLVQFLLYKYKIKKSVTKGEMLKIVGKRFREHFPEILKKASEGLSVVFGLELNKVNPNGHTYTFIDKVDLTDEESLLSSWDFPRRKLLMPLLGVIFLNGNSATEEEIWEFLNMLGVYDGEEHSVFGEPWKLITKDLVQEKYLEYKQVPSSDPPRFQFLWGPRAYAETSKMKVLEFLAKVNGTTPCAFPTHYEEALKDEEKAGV
- MEASUREMENT_DESCRIPTION: IHC on FFPE NCI-H82 cells (endogenous MAGEB2)
ENDPOINT: IHC Intensity

Looking for the measured IHC Intensity of 4G17 (antibody, IgG1, V domains shown, Rabbit monoclonal IgG1; Tested as supernatant and as small batch purified antibody; also called MAGE-B2 (4G17); anti-MAGEB2 antibody 4G17) VH: QSLEESGGGLVQPEGSLTLTCTASGVTLSNYYICWVRQAPGKGLEWIGCIDNVNGRTYYASWAKGRFTISKTSSTTGTLQMTSLTAADTATYFCARSLATPLWGPGTLVTVSS VL: DIVMTQTPASVEAAVGGTVTIKCQASQNIDSYLAWYQQKPGQPPKLLIYRASTLASGVPSRFKGSGSGTEFTLTISDLECADAATYYCQSYDDSRSSSFFYGFGGGTEVVVK , can you help? 0
